The measurements presented in this section are drawn from PubChem BioAssay (NCI).

Tested on: SNB-75 CNS
Measurement Protocol: NCI tumour cell line growth inhibition, 48 h
Provide the recorded TGI for the entries that follow.

Recorded results for 3 compounds are shown here.
Compound	TGI
CC(NC(=O)c1ccccc1)NC(=O)C(C)C(=O)Nc1ccccc1 (configuration not stated)	> 100 µM
O=S(=O)(O)c1ccc(N=Nc2c(O)ccc3cc(Br)ccc23)cc1	> 100 µM
Cc1nnc2sc(NN)nn12	> 100 µM

Please supply TGI for each of the following items, keeping them in order.
1. N#Cc1ccccc1NC(=O)C(=O)c1c(O)c2ccccc2oc1=O
2. COC(=O)c1c(O)ccc2c1c1c(n2Cc2ccc(Cl)cc2Cl)C(=O)c2ccccc2C1=O
3. CC(=O)c1ccc(OCC(O)CO)cc1 (configuration not stated)
4. CNC(=O)SCC(N)C(=O)O (configuration not stated)
5. CC(=O)CSc1c(-c2ccccc2)c(=O)n(-c2ccccc2)c(=S)n1-c1ccccc1
6. C/C=C/C1=CC(=O)C(O)C1O (configuration not stated)
7. C=C(C)[C@@]1(OC(=O)c2cc([N+](=O)[O-])cc([N+](=O)[O-])c2)C[C@@H]2CCCC[C@@H]21

Result:
1: > 100 µM; 2: 32.3 µM; 3: > 100 µM; 4: > 100 µM; 5: > 100 µM; 6: 67.5 µM; 7: > 100 µM

Please supply TGI for each of the following items, keeping them in order.
1. C=C(C)[C@@H]1CC[C@]2(C(=O)O)CC[C@]3(C)[C@H](CC[C@@H]4[C@@]5(C)C[C@@H](CC#Cc6ccc(C(F)(F)F)cc6)[C@H](O)C(C)(C)[C@@H]5CC[C@]43C)[C@@H]12
2. O=C1c2ccccc2S(=O)(=O)N1CSC(=S)N1CCCCC1
3. O=C(c1ccccc1)[C@H]1Nc2ccc(Cl)cc2C2c3ccccc3CC21 (some centres not stated)

Result:
1: 5.14 µM; 2: > 100 µM; 3: > 100 µM

Please supply TGI for each of the following items, keeping them in order.
1. NNC(=O)CNC(=O)c1ccc(Cl)cc1Cl
2. COc1ccc2c(CN3CCC(C(=O)O)CC3)cc3cc4c(cc3c2c1)OCO4
3. O=[N+]([O-])c1ccccc1N/N=C\c1c[nH]c2ccccc12
4. Cc1ccccc1-n1ncc(C(=O)c2ccccc2)c1N
5. N/N=C(\C(=O)Nc1ccc(Cl)cc1Cl)C(c1cnc2ccccc2n1)[N+](=O)[O-] (configuration not stated)

Result:
> 100 µM
9.03 µM
29.8 µM
> 25 µM
> 100 µM

----------
System: HL-60(TB) leukemia
Measurement Protocol: NCI tumour cell line growth inhibition, 48 h
Assay Readout: TGI

In [3]: df
Out[3]:
                                   compound  assay_result
0  O=C(CN(/C=C/C(=O)C(F)(F)F)c1ccc(Cl)cc1)c1ccccc1       66.7 µM
1  COC(=O)C(CC(C)C)NC(=O)NC12CC3CC(CC(F)(C3)C1)C2 (stereo not drawn)      > 100 µM

Next:
Q: Any idea what TGI was measured for "Cc1nc(N/N=C/c2ccccc2Cl)[nH]c(=O)c1CCO" ?
Result: > 100 µM

----------
System: UO-31 renal
Measurement Protocol: NCI tumour cell line growth inhibition, 48 h
Assay Readout: TGI (µM)
Give bare numbers, in µM.

Recorded results for 10 compounds are shown here.
Compound	Assay Readout	Assay Result
O=[N+]([O-])c1ccc(Sc2ncnc3nc[nH]c23)c2nonc12	TGI	2.95
Cc1ccc(C(SCC(N)C(=O)O)(c2ccc(C)cc2)c2ccc(C)cc2)cc1 (centres undefined)	TGI	40.4
CN(C)c1ccc(N=C2C=CC(=[N+](C)C)C=C2)cc1	TGI	47.6
CCCCCCCCN(CCCCCCCC)CCCCCCNc1cc(OC)cc2cccnc12	TGI	24.4
c1cc2[nH]ncc2cc1-c1nc2ccc3[nH]ncc3c2c2c1CCCC2	TGI	4.54
O=C(N=Nc1cccc(Cl)c1)NNc1cccc(Cl)c1	TGI	45.5
CC(=O)O[C@H]1/C(=C/c2ccncc2)C[C@H]2[C@@H]3CC=C4C[C@@H](N5CCCC5)CC[C@]4(C)[C@H]3CC[C@]12C	TGI	18.1
O=C(/C(=C\c1ccc([N+](=O)[O-])cc1)S(=O)Cc1ccc(F)cc1)c1ccc(F)cc1 (centres undefined)	TGI	3.23
O=C(N/N=C/c1cc(Cl)cc(Cl)c1[O-])c1ccccc1O.O=C(N/N=C/c1cc(Cl)cc(Cl)c1[O-])c1ccccc1O.[Zn+2]	TGI	10.6
NCCN1C(=O)CN=C(c2ccc(Cl)cc2)c2cc(Cl)ccc21	TGI	27.3

Q: Any idea what TGI was measured for "C[C@]12CC/C(=N\O)C=C1CC[C@@H]1[C@@H]2CC[C@]2(C)C(=N/O)/C(=C/c3ccc([N+](=O)[O-])cc3)C[C@@H]12" ?
Result: 20.4

----------
System: HT29 colon
Measurement Protocol: NCI tumour cell line growth inhibition, 48 h
Provide the recorded TGI for the entries that follow.

Recorded results for 5 compounds are shown here.
>>> df
                                   compound  assay_result
0  Nc1ccn(C2CCC(CO)O2)c(=S)n1 (stereo unspecified)      > 100 µM
1  CCOC(=O)CSc1nnc2cc(CN3CCCC3)c(-c3ccc(Cl)cc3)nn12      > 100 µM
2  NC1CCC(Nc2nc(NCc3ccc(-c4cccs4)nc3)c3ncn(C4CCCC4)c3n2)CC1 (stereo unspecified)      0.315 µM
3                  CCCCCCCCCCCCCC1=NCCN1CCO     > 28.6 µM
4  O=c1oc2ccccc2c(O)c1/C=N/C(=S)NCCc1ccccc1      > 100 µM

Next:
Q: Any idea what TGI was measured for "CCOc1ccc(N/C(Cl)=C(Cl)\C(=C(\Nc2ccc(OCC)cc2)n2nnc3ccccc32)[N+](=O)[O-])cc1" ?
Result: 3.46 µM

----------
Provide the recorded GI50 for the entries that follow.
Tested on: EKVX NSCLC
Measurement Protocol: NCI tumour cell line growth inhibition, 48 h

Recorded results for 3 molecules are shown here.
>>> print(df.to_string())
                                   molecule  assay_readout  assay_result
0  NC1CCC(Nc2nc(NCc3ccc(-c4cccs4)nc3)c3ncn(C4CCCC4)c3n2)CC1 (stereo unspecified)           GI50       42.6 nM
1  CC(C)(C)C(=O)OCOP(=O)(OCOC(=O)C(C)(C)C)C1CC(O)N(O)C1=O (stereo unspecified)           GI50      10800 nM
2  O=C1Nc2c(C(F)(F)F)cccc2[C@@]1(c1ccc(O)cc1)c1ccc(OC(F)(F)F)cc1           GI50       13.4 nM

Please supply GI50 for each of the following items, keeping them in order.
1. O=C(/C(=C\c1ccc([N+](=O)[O-])cc1)S(=O)Cc1ccc(F)cc1)c1ccc(F)cc1 (stereo unspecified)
2. CCN1C(=O)N(CC)C2Nn3c(s/c(=C\c4ccccc4Br)c3=O)=NC21 (stereo unspecified)
3. O=C1C(=O)c2c(nc3ccc(Br)cn23)-c2ccccc21

Result:
["1910 nM", "2300 nM", "1540 nM"]

----------
Tested on: RXF 393 renal
Measurement Protocol: NCI tumour cell line growth inhibition, 48 h
Assay Readout: TGI (µM)
Answers are plain numbers, in µM.

>>> df
                               molecule  assay_result
0  CCN(CC)CCOc1ccccc1/C=C/c1noc2ccccc12          9.97

Please supply TGI for each of the following items, keeping them in order.
1. O=C(c1ccccc1)[C@H]1Nc2ccc(Cl)cc2C2c3ccccc3CC21 (some centres undefined)
2. O=C1C(=O)c2c(nc3ccc(Br)cn23)-c2ccccc21

Result:
45.4
2.97

Q: Please state recorded TGI (tested on RXF 393 renal) of OCC(O)C(O)C(O)c1nn(-c2ccc(Cl)cc2)c2nc3cc(Cl)c(Cl)cc3nc12 (centres undefined)
Result: 72.4

----------
Provide the recorded TGI for the entries that follow.
System: NCI-H522 lung
Measurement Protocol: NCI tumour cell line growth inhibition, 48 h
One number for each entry, in µM.

>>> df
                                   compound  assay_readout  assay_result
0  COc1cc(OC)c(/C=C\c2cc(/C=C/c3c(OC)cc(OC)cc3OC)c3ccccc3[n+]2C)c(OC)c1            TGI          7.58

Please supply TGI for each of the following items, keeping them in order.
1. CC(=O)NC1=C(NCCN(C)C)C(=O)c2ccccc2C1=O
2. CCN1C(=O)N(CC)C2Nn3c(s/c(=C\c4ccccc4Br)c3=O)=NC21 (stereo not given)
3. O=C1NC(=O)C(=C/C=C/c2ccccc2)C(=O)N1

Result:
1. 23.8
2. 4.15
3. 7.15
